assay: Cytotoxicity against human A549 cells measured after 48 hrs by MTT assay; type: toxicity, cell-based
Reported Property: GI50 at 48 h

Recorded GI50 at 48 h, per entry:
Endpoint output: GI50 at 48 h of "CC(=O)O[C@H]1C(=O)[C@@]2(C)[C@H]([C@H](OC(=O)c3ccccc3)[C@]3(O)C[C@H](OC(=O)[C@H](O)[C@@H](NC(=O)c4ccccc4)c4ccccc4)C(C)=C1C3(C)C)[C@]1(OC(C)=O)CO[C@@H]1C[C@@H]2O" . Value?
0.04 µg/mL

Endpoint output: GI50 at 48 h of "O=C1NC(=S)S/C1=C\c1cc2cc(Cl)ccc2nc1Cl" . Value?
> 100 µg/mL

Endpoint output: GI50 at 48 h of "Cc1cccc2cc(/C=C3\SC(=S)N(CC(=O)O)C3=O)c(Cl)nc12" . Value?
> 100 µg/mL

Endpoint output: GI50 at 48 h of "O=C(O)CN1C(=O)/C(=C/c2cc3cc(F)ccc3nc2Cl)SC1=S" . Value?
> 100 µg/mL

---
Endpoint output: GI50 at 48 h of "COc1ccc2cc(/C=C3\SC(=S)NC3=O)c(Cl)nc2c1" . Value?
> 100 µg/mL
